Experiment: protein stability index of a GFP-peptide fusion (yeast GPS) (PSI 1-4); higher = more stable; sorted into four equal gates, so the index is relative within each strain
Details: doa10∆
MEASURE: protein stability index
Give your answer as a number; write no unit.

Any idea what protein stability index was measured for QCIVYPNCLFILKLLNG [SOH1] ?
1.3

Sample KLKECPFDMGGYFIING [RPB2] — what was its protein stability index?
3

I am curious: what protein stability index value has been reported for KWEQTYKKPTGGIVTVR [FAS1] ?
3.07

Tell me the measured protein stability index of SSLMNGLGYVFEFQYLT [SRB5] , please.
2.25

Which protein stability index reading was recorded for the sequence LVREIAQDFKTDLRFQS [HHT1] ?
2.55

Endpoint output: protein stability index of SKNAQFICTTFRTDMLQ [SMC3] . Value?
2.11

protein stability index for AGRKFKSRRCDDMLYYI [POP4] ?
2.96

Please report the recorded protein stability index for TTIFVKSTTPYVSALKR [POP7] .
1.82

###

Assay: protein stability index of a GFP-peptide fusion (yeast GPS) (PSI 1-4); higher = more stable; sorted into four equal gates, so the index is relative within each strain
Conditions: san1∆
Kindly supply the reported protein stability index values for the records listed here.
Please respond with just the number, no unit label.

Requested field: protein stability index. Item: RMRIFASNEVIAKSRYW [RPL20A]
2.54

I am curious: what protein stability index value has been reported for DLEEVKRFQVLYPCYFD [SEC65] ?
2.42

What measured protein stability index goes with VANQTSATFLRIVGSEL [RPT2] ?
2.15

Which protein stability index is listed for KLLNDLALENGEITKTE [NUT1] ?
2.78

Query: protein stability index; subject: PNSNKTHTEQNNPPKPQ [SNF2]
3.06

Give the measured protein stability index of INAKNIAFASNYGIVEL [RRP43] .
1.4

Entry under review: NYQYKIQELRKLLKSLL [MED7] . Reported protein stability index?
2.28

// lookup protein stability index for EEIKQSARNYDKFKLNE [SMC1]
3.16

###

Experiment: protein stability index of a GFP-peptide fusion (yeast GPS) (PSI 1-4); higher = more stable; sorted into four equal gates, so the index is relative within each strain
Settings: ubr1∆
MEASURE: protein stability index
Give only the figure.

// query protein stability index value for entry VGDVVGGALDNPFEDDM [BRN1]
3.16

Can you share its protein stability index? I mean this sequence: ITLHPSFFGPRMKQYLK [RPB7]
2.02

Request the reported protein stability index associated with AEFKKENLADLDYQIGN [LIN1]
3.26

Item AEDVALNEQVKKFFLNN [NAS6] has what recorded protein stability index?
2.04

Which protein stability index value belongs to NTLLISGPFKVNGVPLR [RPL6A] ?
2.72

Field request: protein stability index | item: NLGSRTKNNTQASGITA [SSN3]
2.65

Give its protein stability index value. Item: EIKVGKQRFQGCNNLIK [ARP9]
3.34

For PIKNRTSKSFSKLLYDD [SIN4] , what is its reported protein stability index?
2.64

What value of measured protein stability index is listed for LVYQYKGAGLSMGTMIC [PRE2] ?
2.24

Any idea what its protein stability index is? The sequence is RARLKGKEGRIRGNLMG [RPO21]
2.96

Need protein stability index, item AFHTAVLRLNAIPLLKV [NUT1]
1.99

// protein stability index lookup, key: LCHPKKEKYGLAVSTIL [SMC1]
2.15

So what's the measured protein stability index for this one? LLPTNNGQPLNQNFSLT [GRR1]
3.02

Give the measured protein stability index of KHSVTEYIFEAHEIIKR [CDC53] .
2.58

Need protein stability index, item PIPSKPTLFDLAFNYIT [SRP68]
2.02

State the recorded protein stability index for this entry: IRNLTVFTMKELAQYMK [RGR1]
2.79

protein stability index lookup needed for RKKARTFDSSWNWAKQS [FAS2] , thanks.
2.95

Reported protein stability index, sequence NSLIEEINERSETQTKD [YCG1] : ____
2.97

Need protein stability index of DTKSVVGLVMFSQFWYW [RPN2] , thanks.
2.52

Report protein stability index for TGRMRYLKHVSRRFKNG [RPL37A] please.
3.38

May I ask what protein stability index has been recorded for LHKLELKAKNQEEEGEL [DSN1] ?
3.25

Request the reported protein stability index associated with VMYGTAYKFEEVSKDLI [RPB8]
3.09

Form field: reported protein stability index of KKRKNKSSGSSMATPTH [ROX3]
3.28

Please give the measured protein stability index for this sequence: TRISSQFEKSRKVSGPR [RET1]
2.75

Please give the measured protein stability index for this sequence: ETISKLNEYKRETLVKT [SMC2]
2.57

Any idea what its protein stability index is? The sequence is YSAAKKIPDTYTANTSA [YAR002W/NUP60]
2.55

# protein stability index lookup, item ERLKVPILVTLVSDSEI [POP6]
1.66

protein stability index for LDSGDDQPQSSEAKRTK [BRR2] ?
3.25

What does the data say about its protein stability index? Entry: EDGLLEGLDELPKIIQL [SOH1]
3.15

Which protein stability index is reported for this sequence? SYKMNSSAADITMESVH [PRP8]
3.17

# lookup: protein stability index of MGVRTFSQKEMAFNLLG [FAS2]
2.21

###

Test: protein stability index of a GFP-peptide fusion (yeast GPS) (PSI 1-4); higher = more stable; sorted into four equal gates, so the index is relative within each strain
Details: doa10∆
The recorded protein stability index of each item maps onto one of these classes: interval 1 = under 2, interval 2 = from 2 up to 3, interval 3 = 3 and over

Class? Entry: IDDVQTIKVVKRSMDAE [RPP1]
interval 3

Which band does FKLPKKFPPPTPLLENI [BRR2] fall in?
interval 2

Consider FEIVDREKNSLESGKET [SMC4] . To which protein stability index class does it belong?
interval 3

Field: class (protein stability index) — entry: KFGLLLQVSAQERKDFL [ECM29]
interval 1

Hey, which category is DSNGDFNEDQLFSLLEL [RRP46] in, do you know?
interval 2

Place this sequence in its band: TSLSSKDLSNYRKTEGI [YMR153W/NUP53]
interval 3

Hello team, could you let me know which band the following sequence falls into: SLFELIVPIFQLISAVL [YJL039C/NUP192]
interval 1

Which band does LLRQKIEQCKHPLHELI [ISW2] fall in?
interval 1

Class for TSFDIKREGRNELQEER [POP6] ?
interval 3

Bin? TTALLKDEEIEKLLQQD [MED8]
interval 3

Pick a category. Item: EKVILVQEQLSKNRIIV [RET1]
interval 1

Lab note: which band did PTPSVKTEPVGTGLQSY [RPC53] land in?
interval 3

Determine which band this sequence sits in: IISRLNADFQKPWFATV [FAS1]
interval 2

###

Test: protein stability index of a GFP-peptide fusion (yeast GPS) (PSI 1-4); higher = more stable; sorted into four equal gates, so the index is relative within each strain
Conditions: pdr5∆
Label scheme for protein stability index: lower than 3 is 0 (no), 3 and above is 1 (yes).

Check the entry KRGVKGVEYRLRLRISR [RPL31A] : does protein stability index equal or exceed 3?
0 (no)

Hi team, for IASEVLIKQVPRLLGPQ [RPL1A] , is the recorded protein stability index at or above 3?
0 (no)

Please check the record ISLHENKLSGILADEMG [ISW2] and state if its protein stability index is at or above 3.
0 (no)

Answer whether protein stability index of SSDAFEVDVCDKCGLMG [RET1] is greater than or equal to 3.
0 (no)

# check: protein stability index of KKVVKKAFEERHQAGKN [RPL27A] is greater than or equal to 3
1 (yes)

Hi team, for VFVGSGKGTGKTAMAEL [BRR2] , is the recorded protein stability index at or above 3?
1 (yes)

Determine whether measured protein stability index meets or exceeds 3 for DRDESSPYAAMLAAQDV [RPS14A]
1 (yes)

In plain terms: is recorded protein stability index at least 3 for GTYIQERNPTQRPQRRY [RPS10A] ?
1 (yes)

Kindly determine if protein stability index recorded for ENEEFITFLQTLYIGNT [ECM29] is above or exactly 3.
0 (no)

Quick check, protein stability index >= 3? LNLFSNVLKAPFIKSES [SIR4]
0 (no)

In plain terms: is recorded protein stability index at least 3 for RSPPRPPSLKIIDGPKA [PRP28] ?
0 (no)

Could you tell me if the measured protein stability index of PLFIVEDDESLGHKELK [RPB2] reaches 3 or more?
1 (yes)

Assess whether reported protein stability index for LDERGHEKIEDEDEDND [RPN4] sits at 3 or higher.
1 (yes)
